experimental target: ENT3 (Homo sapiens)
Construct: plasma membrane–directed ENT3 with a truncated N-terminus (that harbors lysosomal targeting motif); expressed in transfected cells; host or cells: Xenopus laevis oocytes injected with in vitro-transcribed mRNA from pOX-Δ36hENT3
Sequence (Q9BZD2 with tags, fused parts or gaps): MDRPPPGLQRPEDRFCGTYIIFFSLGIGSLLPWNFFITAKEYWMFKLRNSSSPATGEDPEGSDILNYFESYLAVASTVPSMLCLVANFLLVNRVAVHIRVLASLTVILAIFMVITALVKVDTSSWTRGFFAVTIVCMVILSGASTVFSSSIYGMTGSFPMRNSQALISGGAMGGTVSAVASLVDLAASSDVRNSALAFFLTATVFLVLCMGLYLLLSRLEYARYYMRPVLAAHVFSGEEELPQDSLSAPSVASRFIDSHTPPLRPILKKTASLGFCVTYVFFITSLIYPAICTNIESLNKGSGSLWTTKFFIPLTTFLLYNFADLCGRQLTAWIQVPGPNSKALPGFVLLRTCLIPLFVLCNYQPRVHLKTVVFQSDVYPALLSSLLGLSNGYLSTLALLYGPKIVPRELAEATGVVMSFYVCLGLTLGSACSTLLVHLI
protocol description: Inhibition of 3H-nucleoside influx by BAs in ENT3-expressing Xenopus oocytes
Type: cell-based
experimental setup: BA 100 μM, 3H-Ado 20 μM, sodium-free buffer
Kindly state ENT3 % uptake inhibition (Ado) for each of the entries shown.
One number for each entry, in %.

{"molecule": "C[C@H](CCC(=O)O)[C@H]1CC[C@H]2[C@@H]3CC[C@@H]4C[C@H](O)CC[C@]4(C)[C@H]3CC[C@]12C [LCA]", "test readout": "ENT3 % uptake inhibition (Ado)", "numeric value": 71.2}

# batch size: 4; output ENT3 % uptake inhibition (Ado) per entry
1. C[C@H](CCC(=O)O)[C@H]1CC[C@H]2[C@@H]3[C@H](O)C[C@@H]4C[C@H](O)CC[C@]4(C)[C@H]3CC[C@]12C [CDCA, chenodeoxycholic acid]
2. C[C@H](CCC(=O)NCCS(=O)(=O)O)[C@H]1CC[C@H]2[C@@H]3[C@@H](O)C[C@@H]4C[C@H](O)CC[C@]4(C)[C@H]3CC[C@]12C [TUDCA, tauroursodeoxycholic acid]
3. C[C@H](CCC(=O)NCCS(=O)(=O)O)[C@H]1CC[C@H]2[C@@H]3[C@H](O)C[C@@H]4C[C@H](O)CC[C@]4(C)[C@H]3C[C@H](O)[C@]12C [TCA, taurocholic acid]
4. C[C@H](CCC(=O)O)[C@H]1CC[C@H]2[C@@H]3[C@H](O)C[C@@H]4C[C@H](O)CC[C@]4(C)[C@H]3C[C@H](O)[C@]12C [CA, cholic acid]

Found:
77.0
62.6
72.3
77.1

Lookup: Could you tell me which ENT3 % uptake inhibition (Ado) is on file for C[C@H](CCC(=O)NCC(=O)O)[C@H]1CC[C@H]2[C@@H]3[C@H](O)C[C@@H]4C[C@H](O)CC[C@]4(C)[C@H]3C[C@H](O)[C@]12C [GCA, glycocholic acid] ?
Found: 68.0
